target: hCaV2.2 (Homo sapiens, UniProt Q00975); construct: expressed in transfected cells; plasmids pCIN5-hCaV2.2, pCIH-hCaV β3, pCIP-α2δ1; experiment: hCaV2.2 assay, IonWorks planar array electrophysiology in stably transfected HEK293 cells; assay type: cell-based; conditions: current elicited by the 1st depolarising pulse inhibited by 50%; HEK293 cells expressing human CaV2.2 alpha/beta3/alpha2delta1; read-out: mean pIC50 (tonic pIC50) (converted)
Sequence (Q00975 whole entry): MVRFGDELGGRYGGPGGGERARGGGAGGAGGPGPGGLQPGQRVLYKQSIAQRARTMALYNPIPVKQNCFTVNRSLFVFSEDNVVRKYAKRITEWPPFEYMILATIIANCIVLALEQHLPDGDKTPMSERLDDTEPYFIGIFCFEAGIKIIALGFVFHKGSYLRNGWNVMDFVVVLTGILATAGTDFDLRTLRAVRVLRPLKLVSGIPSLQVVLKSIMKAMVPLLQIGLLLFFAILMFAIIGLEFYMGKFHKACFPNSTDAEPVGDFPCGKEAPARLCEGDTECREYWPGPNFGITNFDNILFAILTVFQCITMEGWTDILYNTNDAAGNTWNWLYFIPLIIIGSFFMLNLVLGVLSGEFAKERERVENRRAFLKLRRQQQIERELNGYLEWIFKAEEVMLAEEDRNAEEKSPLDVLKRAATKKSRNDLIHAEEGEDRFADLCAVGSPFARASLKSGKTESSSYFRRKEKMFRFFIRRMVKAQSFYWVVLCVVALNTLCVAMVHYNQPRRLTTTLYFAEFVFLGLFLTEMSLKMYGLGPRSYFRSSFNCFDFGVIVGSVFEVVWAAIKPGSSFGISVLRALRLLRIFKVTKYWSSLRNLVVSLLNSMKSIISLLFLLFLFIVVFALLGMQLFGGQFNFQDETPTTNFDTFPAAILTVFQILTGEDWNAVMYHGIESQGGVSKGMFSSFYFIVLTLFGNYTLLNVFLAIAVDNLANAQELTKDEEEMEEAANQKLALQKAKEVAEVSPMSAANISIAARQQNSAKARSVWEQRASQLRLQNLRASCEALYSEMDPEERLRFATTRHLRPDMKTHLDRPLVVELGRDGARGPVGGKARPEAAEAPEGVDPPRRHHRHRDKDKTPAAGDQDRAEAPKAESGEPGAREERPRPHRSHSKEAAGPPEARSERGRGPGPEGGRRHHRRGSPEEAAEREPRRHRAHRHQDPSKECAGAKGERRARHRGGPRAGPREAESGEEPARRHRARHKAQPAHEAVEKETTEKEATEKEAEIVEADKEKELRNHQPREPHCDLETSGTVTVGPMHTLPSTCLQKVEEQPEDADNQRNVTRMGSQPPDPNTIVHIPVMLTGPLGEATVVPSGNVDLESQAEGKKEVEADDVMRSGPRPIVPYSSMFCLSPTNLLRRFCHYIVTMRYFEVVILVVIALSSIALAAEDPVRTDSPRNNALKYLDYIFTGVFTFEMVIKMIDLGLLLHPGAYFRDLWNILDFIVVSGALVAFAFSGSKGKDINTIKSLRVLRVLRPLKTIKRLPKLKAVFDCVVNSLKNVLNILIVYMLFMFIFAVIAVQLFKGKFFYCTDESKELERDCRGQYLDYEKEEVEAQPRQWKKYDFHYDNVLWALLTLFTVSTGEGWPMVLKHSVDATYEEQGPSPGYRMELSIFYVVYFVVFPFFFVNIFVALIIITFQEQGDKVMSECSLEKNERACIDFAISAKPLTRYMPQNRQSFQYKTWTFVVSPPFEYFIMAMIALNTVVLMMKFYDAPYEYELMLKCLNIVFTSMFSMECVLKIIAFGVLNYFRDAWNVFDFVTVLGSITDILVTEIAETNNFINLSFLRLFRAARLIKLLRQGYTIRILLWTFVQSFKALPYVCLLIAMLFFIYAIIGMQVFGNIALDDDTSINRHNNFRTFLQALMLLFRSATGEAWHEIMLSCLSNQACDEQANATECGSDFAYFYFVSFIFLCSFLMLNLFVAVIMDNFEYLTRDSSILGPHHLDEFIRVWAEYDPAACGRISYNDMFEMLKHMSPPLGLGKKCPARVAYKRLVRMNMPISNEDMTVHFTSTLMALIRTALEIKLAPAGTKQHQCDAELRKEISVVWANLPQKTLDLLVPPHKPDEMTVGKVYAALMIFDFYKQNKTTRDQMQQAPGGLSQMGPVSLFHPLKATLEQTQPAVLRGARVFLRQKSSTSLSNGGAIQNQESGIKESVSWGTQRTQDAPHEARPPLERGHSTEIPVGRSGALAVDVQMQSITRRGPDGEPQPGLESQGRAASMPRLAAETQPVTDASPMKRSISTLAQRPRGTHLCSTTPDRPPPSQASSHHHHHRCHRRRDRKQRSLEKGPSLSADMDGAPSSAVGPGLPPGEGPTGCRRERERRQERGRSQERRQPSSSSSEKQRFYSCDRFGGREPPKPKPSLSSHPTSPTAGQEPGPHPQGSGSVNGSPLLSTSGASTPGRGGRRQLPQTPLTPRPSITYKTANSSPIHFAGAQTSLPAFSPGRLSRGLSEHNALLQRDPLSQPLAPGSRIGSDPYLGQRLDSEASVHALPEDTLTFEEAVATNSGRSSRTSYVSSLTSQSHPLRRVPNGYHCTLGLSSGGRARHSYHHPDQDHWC
Counter-ions that a name gives are not always drawn.
# IC50 per entry

Examples from the recorded data:
{"Compound": "COc1ccc(C(=O)N2CCN(S(=O)(=O)c3ccc(C(F)(F)F)cc3)C[C@@H]2C)cn1", "IC50": "≥ 31.6 µM"}
{"Compound": "Nc1ccc(C(=O)N2CCN(S(=O)(=O)c3ccc(C(F)(F)F)cc3)CC2)cn1", "IC50": "≥ 31.6 µM"}
{"Compound": "Cc1ccc(C(=O)N2CCN(S(=O)(=O)c3cc(C(F)(F)F)ccc3C)C[C@@H]2C)cn1", "IC50": "≥ 31.6 µM"}
{"Compound": "Cc1ccc(C(=O)N2CCN(S(=O)(=O)c3ccc(C(F)(F)F)cc3)C[C@@H]2C)cn1", "IC50": "≥ 31.6 µM"}
{"Compound": "CNc1ccc(C(=O)N2CCN(S(=O)(=O)c3ccc(C(F)(F)F)cc3)C[C@@H]2C)cn1 [Example 44, hydrochloride]", "IC50": "≥ 10 µM"}
{"Compound": "O=C(c1ccc(NC2CCOCC2)nc1)N1CCN(S(=O)(=O)c2ccc(C(F)(F)F)cc2)CC1", "IC50": "≥ 31.6 µM"}

### Prompt Tell me the measured IC50 of Cc1cc(C#N)ccc1S(=O)(=O)N1CCN(C(=O)c2ccc(Cl)nc2C)[C@@H](C)C1 , please.
### Response ≥ 10 µM

### Prompt Which IC50 is listed for Cc1cc(C#N)ccc1S(=O)(=O)N1CCN(C(=O)c2ccc(N(C)C)nc2C)[C@@H](C)C1 [Example 30, hydrochloride] ?
### Response ≥ 10 µM

### Prompt I have this compound here, C[C@H]1CN(S(=O)(=O)c2ccc(C(F)(F)F)cc2)CCN1C(=O)c1cncc(Br)c1 , and I need its recorded IC50.
### Response ≥ 10 µM

### Prompt IC50 lookup needed for Cc1ccc(C(=O)N2CCN(S(=O)(=O)c3ccc(C#N)cc3)C[C@@H]2C)cn1 , thanks.
### Response ≥ 31.6 µM

### Prompt Record request: IC50 value, item C[C@H]1CN(C(=O)c2ccc(N3CCOCC3)nc2)CCN1S(=O)(=O)c1ccc(Cl)cc1
### Response ≥ 31.6 µM
